B1: library; a variant is named by its letters at N, in order (parent)
chain: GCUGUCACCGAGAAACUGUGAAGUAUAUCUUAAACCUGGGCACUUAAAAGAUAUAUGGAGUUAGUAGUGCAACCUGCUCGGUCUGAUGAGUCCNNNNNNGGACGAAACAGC

Variants of: B1
test.description: normalized RNA/DNA level with ligand (relative to sTRSVctl = 100) (log10 (% of sTRSVctl)); HEK293T; ligand: cyclic di-GMP (c-di-GMP-II aptamer); ligand concentration (+) RNA-Seq: 1 mM; higher = less ribozyme self-cleavage, higher mRNA level
test.parameters: reporter: mCherry (pCS4076), ligand present: yes
normalized RNA/DNA level with ligand (log10) reference
Give only the figure.

In the examples that follow, each entry is paired with its recorded normalized RNA/DNA level with ligand (log10).
- record.sequence: "GCUGUCACCGAGAAACUGUGAAGUAUAUCUUAAACCUGGGCACUUAAAAGAUAUAUGGAGUUAGUAGUGCAACCUGCUCGGUCUGAUGAGUCCGCAUAUGGACGAAACAGC [GCAUAU]"
  observed.value: 1.72
- record.sequence: "GCUGUCACCGAGAAACUGUGAAGUAUAUCUUAAACCUGGGCACUUAAAAGAUAUAUGGAGUUAGUAGUGCAACCUGCUCGGUCUGAUGAGUCCAUGGCGGGACGAAACAGC [AUGGCG]"
  observed.value: 1.83
- record.sequence: "GCUGUCACCGAGAAACUGUGAAGUAUAUCUUAAACCUGGGCACUUAAAAGAUAUAUGGAGUUAGUAGUGCAACCUGCUCGGUCUGAUGAGUCCGUGAUAGGACGAAACAGC [GUGAUA]"
  observed.value: 1.7
- record.sequence: "GCUGUCACCGAGAAACUGUGAAGUAUAUCUUAAACCUGGGCACUUAAAAGAUAUAUGGAGUUAGUAGUGCAACCUGCUCGGUCUGAUGAGUCCGGGCUCGGACGAAACAGC [GGGCUC]"
  observed.value: 1.98
- record.sequence: "GCUGUCACCGAGAAACUGUGAAGUAUAUCUUAAACCUGGGCACUUAAAAGAUAUAUGGAGUUAGUAGUGCAACCUGCUCGGUCUGAUGAGUCCAGGCUAGGACGAAACAGC [AGGCUA]"
  observed.value: 1.65

Next:
# input What measured normalized RNA/DNA level with ligand (log10) goes with GCUGUCACCGAGAAACUGUGAAGUAUAUCUUAAACCUGGGCACUUAAAAGAUAUAUGGAGUUAGUAGUGCAACCUGCUCGGUCUGAUGAGUCCGCGUGUGGACGAAACAGC [GCGUGU] ?
# output 1.75
